Data origin, for the record: patent US10723741B1

# Tested on: Streptococcus pneumoniae ATCC 49619
# Procedure Text: Broth microdilution MIC, S. pneumoniae ATCC 49619
# Format: cell-based
# Measurement Context: ATCC49619, broth microdilution, 37° C., 20 hours, read-out: MIC S. pneumoniae ATCC 49619
Reported Endpoint: MIC (µg/mL)

Some entries whose results are on file:
O=C(c1cccnc1)N1CCC(n2nc(F)c3nc(NCc4ccc(Cl)c(Cl)c4)[nH]c(=O)c32)CC1 [Compound 317] ... 4
O=c1[nH]c(NCc2ccc(Cl)c(Cl)c2)nc2cnn(CC3COCCO3)c12 (centres unmarked) [Compound 105] ... 4
O=c1[nH]c(NCc2ccc(F)c(F)c2)nc2c(F)nn(Cc3cocn3)c12 [Compound 316] ... 2
O=c1[nH]c(NCc2ccc(Cl)c(Cl)c2)nc2cnn(-c3ccccc3)c12 [Compound 212] ... 8

I: Cl.O=c1[nH]c(NCc2ccc(Cl)c(Cl)c2)nc2cnn(Cc3cccnc3)c12 [Compound 113]
II: Cl.O=C(c1cccnc1)N1CCC(n2ncc3nc(NCc4ccc(Cl)c(Cl)c4)[nH]c(=O)c32)C1 (centres unmarked) [Compound 258]
Lookup: # compare MIC for I vs II ; return the one with the smaller value Lab note: record the label of whichever item you select.
Found: II
